- Test system: 227483-062-R1-J1-PDC complex spheroids with HUVEC/MSC, viability;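 note: spheroids exposed to compounds for seven days before readout; percent of DMSO vehicle control luminescence as 100% viability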
- Assay explanation: Anticancer human tumor 227483-062-R1-J1-PDC patient-derived pancreatic carcinoma cell line growth inhibition [CLK]
- Test conditions: second compound 0.316 µM; first compound 0.00949 µM; active compounds read low
- From the text: A high-throughput screen of multi-cell type tumor spheroids was designed to identify active combinations of […] and targeted small molecules. Complex spheroids include a stromal component modeled by human endothelial cells (HUVEC) and fibroblasts modeled by human mesenchymal stem cells (MSCs). […] Compounds. […] If the clinical Cmax for an agent had not been determined, the highest concentration tested was 10 microM. […]
Measurement name: viability, T/C (%)
Express it in %; write the number only.

Molecule: CC(C)CC(NC(=O)C(Cc1ccccc1)NC(=O)c1cnccn1)B(O)O (stereo unspecified) + CN1CCN(c2cc(C(=O)Nc3cc4cc(-c5cnn(C)c5)ccc4cn3)ccn2)CC1
viability, T/C (%): 0.59

-- ask Return reported viability, T/C for target or system 227483-062-R1-J1-PDC complex spheroids with HUVEC/MSC, viability, item C=CC(=O)Nc1cc(Nc2nccc(-c3cn(C)c4ccccc34)n2)c(OC)cc1N(C)CCN(C)C + CN1CCN(c2cc(C(=O)Nc3cc4cc(-c5cnn(C)c5)ccc4cn3)ccn2)CC1 .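 Note: spheroids exposed to compounds for seven days before readout; percent of DMSO vehicle control luminescence as 100% viability.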
-- reply 5.48

-- ask # lookup: 227483-062-R1-J1-PDC complex spheroids with HUVEC/MSC, viability viability, T/C, key = NC(=O)C(=Cn1cnc(-c2cc(C(F)(F)F)cc(C(F)(F)F)c2)n1)c1cncnc1 + CNC(=O)c1ccc(Nc2nc(OC3CCCC3)c3c(-c4ccc5nc(C)oc5c4)c[nH]c3n2)c(OC)c1
-- reply 61.4

-- ask Look up and report viability, T/C, with 227483-062-R1-J1-PDC complex spheroids with HUVEC/MSC, viability as system, for CC(C)CC(NC(=O)C(Cc1ccccc1)NC(=O)c1cnccn1)B(O)O (stereo unspecified) + CNC(=O)c1ccc(Nc2nc(OC3CCCC3)c3c(-c4ccc5nc(C)oc5c4)c[nH]c3n2)c(OC)c1
-- reply 0.43

-- ask Fill in: viability, T/C on 227483-062-R1-J1-PDC complex spheroids with HUVEC/MSC, viability, entry NC(=O)C(=Cn1cnc(-c2cc(C(F)(F)F)cc(C(F)(F)F)c2)n1)c1cncnc1 + CN1CCN(c2cc(C(=O)Nc3cc4cc(-c5cnn(C)c5)ccc4cn3)ccn2)CC1
-- reply 3.14

-- ask Given C=CC(=O)Nc1cc(Nc2nccc(-c3cn(C)c4ccccc34)n2)c(OC)cc1N(C)CCN(C)C + CNC(=O)c1ccc(Nc2nc(OC3CCCC3)c3c(-c4ccc5nc(C)oc5c4)c[nH]c3n2)c(OC)c1 , report its viability, T/C on 227483-062-R1-J1-PDC complex spheroids with HUVEC/MSC, viability.
-- reply 89.9
